Record form. Attribute: self-cleavage. Fill in for each entry.
B1: LINE1-full (parent)
chain: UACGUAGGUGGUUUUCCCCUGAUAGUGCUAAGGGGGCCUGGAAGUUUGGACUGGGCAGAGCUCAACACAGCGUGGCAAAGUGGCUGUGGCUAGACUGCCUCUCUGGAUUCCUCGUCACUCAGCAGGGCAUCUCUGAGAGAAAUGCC

Variants of: B1
Assay Explanation: self-cleavage, relative activity (ratio to wild type); higher = more cleavage; in vitro, sequencing; the parent is a self-cleaving ribozyme

Worked set:
{"Variant Annotation": "U81C U96C", "self-cleavage": 0.2}
{"Variant Annotation": "U12C U45C", "self-cleavage": 0.98}
{"Variant Annotation": "U9A G40A", "self-cleavage": 1}

Now for another entry.
Data point: A43G U115G ; self-cleavage = 1.02
